TARGET_DESC: Tyrosine-protein phosphatase non-receptor type 1 (Homo sapiens)
METHOD: Inhibition of human recombinant PTP1B (1 to 322 residues) expressed in Escherichia coli using pNPP as substrate preincubated for 10 mins followed by substrate addition and measured after every 30 secs for 10 mins by photometric method
Readings of IC50 for the listed compounds
The figure you give is taken to be in µM; do not add the unit.

| SMILES_ENTRY | TARGET_DESC | IC50 (µM) |
| --- | --- | --- |
| CCCCCCC/C=C/C(=C\C=C\C(=O)O)COC(C)=O | Tyrosine-protein phosphatase non-receptor type 1 (Homo sapiens) | 38 |

Could you now consider this next compound?
IC50 for CCCCCCC/C=C/C(=C/C=C/C(=O)O)COC(C)=O is 484

====

Readings of pIC50 for the listed molecules
TARGET_DESC: Tyrosine-protein phosphatase non-receptor type 1 (Homo sapiens, UniProt P18031)
METHOD: Inhibition of PTP1B (unknown origin) using pNPP as substrate incubated for 30 mins by photometric method
// pIC50: -log10(molar conc.)

Please review the following examples before continuing.
| SMILES_ENTRY | pIC50 |
| --- | --- |
| CCCCCCCCCCCCCCCC(=O)O | 5.06 |
| CCCCCCCCCCCCCCCCCCCC(=O)O | 5.80 |

pIC50 for CCCCCC/C=C\CCCCCCCC(=O)O is 5.19

pIC50 for CCCCCCCC/C=C\CCCCCCCCCC(=O)O is 5.85

pIC50 for CCCCCCCCCCCCCCCCCC(=O)O is 5.64

pIC50 for CCCCCCCC/C=C\CCCCCCCC(=O)O is 5.21

====

TARGET_DESC: Tyrosine-protein phosphatase non-receptor type 1 (Homo sapiens, UniProt P18031)
Sequence (P18031 whole entry): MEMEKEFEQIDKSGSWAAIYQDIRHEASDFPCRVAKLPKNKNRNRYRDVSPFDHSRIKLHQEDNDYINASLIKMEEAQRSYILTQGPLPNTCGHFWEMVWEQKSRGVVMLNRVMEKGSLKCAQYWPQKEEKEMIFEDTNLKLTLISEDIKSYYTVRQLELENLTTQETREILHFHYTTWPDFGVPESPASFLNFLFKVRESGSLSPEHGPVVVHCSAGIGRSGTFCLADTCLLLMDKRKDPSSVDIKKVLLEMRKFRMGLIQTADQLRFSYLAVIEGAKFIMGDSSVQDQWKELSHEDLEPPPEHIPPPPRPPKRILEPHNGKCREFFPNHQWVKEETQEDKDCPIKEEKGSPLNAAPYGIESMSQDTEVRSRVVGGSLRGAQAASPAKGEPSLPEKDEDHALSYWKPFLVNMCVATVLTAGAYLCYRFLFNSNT
METHOD: Inhibition of human recombinant PTP1B (1 to 322 residues) expressed in Escherichia coli using pNPP as substrate preincubated for 10 mins followed by substrate addition and measured after every 30 secs for 10 mins by photometric method
PROPERTY_MEASURED: pIC50
// pIC50: -log10(molar conc.)

Please review the following examples before continuing.
| SMILES_ENTRY | PROPERTY_MEASURED | ENDPOINT_VALUE |
| --- | --- | --- |
| C=C(/C=C/CCCCCCC)CCCC(=O)O | pIC50 | 3.84 |
| CCCCCCC/C=C/C(=C/C=C/C(=O)O)CO | pIC50 | 3.79 |
| CCCCCCC[C@@H]1[C@@H](/C(=C/C=C/C(=O)O)COC(C)=O)[C@@H](/C=C/C(=O)O)C(CO)=C[C@H]1CCCCCCC | pIC50 | 4.62 |
| CCCCCCC[C@@H]1[C@@H](/C(=C/C=C/C(=O)O)CO)[C@@H](/C=C/C(=O)O)C(COC(C)=O)=C[C@H]1CCCCCCC | pIC50 | 4.52 |
| CCCCCCC[C@@H]1[C@@H](/C(=C/C=C/C(=O)O)COC(C)=O)[C@@H](/C=C/C(=O)O)C(COC(C)=O)=C[C@H]1CCCCCCC | pIC50 | 4.92 |

pIC50 for CCCCCCC[C@H]1[C@H](/C(=C/C=C/C(=O)O)CO)[C@@H](/C=C/C(=O)O)C(COC(C)=O)=C[C@H]1CCCCCCC is 5.62

pIC50 for CCCCCCC/C=C/C(=C/[C@H]1[C@H](C(=O)O)[C@H](CCCCCCC)C=C(COC(C)=O)[C@@H]1/C=C/C(=O)O)COC(=O)O is 4.18
